Reported values of Substrate Selectivity: Ki_AMP-pNP/Ki_cGAMP for individual entries
# TARGET DESC: ENPP1 (Homo sapiens)
# Sequence (P22413 1-925): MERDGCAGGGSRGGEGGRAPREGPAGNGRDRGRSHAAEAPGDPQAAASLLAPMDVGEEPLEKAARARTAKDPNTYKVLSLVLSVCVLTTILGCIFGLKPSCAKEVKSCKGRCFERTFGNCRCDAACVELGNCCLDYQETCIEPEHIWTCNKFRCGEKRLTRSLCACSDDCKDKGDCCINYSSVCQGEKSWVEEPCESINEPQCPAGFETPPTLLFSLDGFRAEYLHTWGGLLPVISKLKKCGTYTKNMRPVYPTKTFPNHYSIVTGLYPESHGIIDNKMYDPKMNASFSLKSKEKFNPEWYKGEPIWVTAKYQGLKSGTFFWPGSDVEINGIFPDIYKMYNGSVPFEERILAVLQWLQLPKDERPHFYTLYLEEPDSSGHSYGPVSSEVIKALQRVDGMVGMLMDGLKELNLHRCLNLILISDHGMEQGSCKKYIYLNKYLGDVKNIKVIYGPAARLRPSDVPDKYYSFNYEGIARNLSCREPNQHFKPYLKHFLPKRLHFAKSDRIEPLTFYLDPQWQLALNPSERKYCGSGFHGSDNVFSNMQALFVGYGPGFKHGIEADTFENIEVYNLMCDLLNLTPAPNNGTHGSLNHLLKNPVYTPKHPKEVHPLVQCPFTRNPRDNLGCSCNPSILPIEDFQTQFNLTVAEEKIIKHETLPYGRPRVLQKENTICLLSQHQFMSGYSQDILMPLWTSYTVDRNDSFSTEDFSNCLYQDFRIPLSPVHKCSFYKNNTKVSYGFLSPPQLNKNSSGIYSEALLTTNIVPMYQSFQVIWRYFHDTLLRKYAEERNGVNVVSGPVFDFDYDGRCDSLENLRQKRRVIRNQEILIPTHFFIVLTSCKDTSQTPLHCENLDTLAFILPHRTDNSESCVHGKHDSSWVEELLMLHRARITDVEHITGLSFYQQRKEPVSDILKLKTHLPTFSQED
# MEASUREMENT NOTES: Substrate selectivity ratio, inhibition of cGAMP hydrolysis versus ATP hydrolysis
# Format: biochemical
# EXPERIMENTAL CONDITIONS: ratio Ki AMP-pNP / Ki cGAMP
The response must contain the number and no unit.

Previously resolved entries follow.
• COc1ccc2c(Oc3ccc(NS(N)(=O)=O)c(Cl)c3)ccnc2c1 = 41.3
• COc1ccc2c(-c3ccc4c(c3)CN(S(N)(=O)=O)CC4)ccnc2n1 = 18
• COc1cc2c(NCc3ccc(S(N)(=O)=O)cc3)ncnc2cn1 = 67.3
• COc1ccc2c(N3CCC4(CC3)CCN(S(N)(=O)=O)C4)ccnc2c1 = 49
• COc1cc2nccc(Oc3ccc(S(N)(=O)=O)cc3)c2cc1OC = 41.6

Let us move to another entry and its Substrate Selectivity: Ki_AMP-pNP/Ki_cGAMP.
Asked: Param request: Substrate Selectivity: Ki_AMP-pNP/Ki_cGAMP | system ENPP1 (Homo sapiens) | item COc1ccc2c(Oc3ccc(NS(N)(=O)=O)cc3)c(C)cnc2c1
Given back: 13.7

====

Measured pKi by item
# TARGET DESC: ENPP1 (Homo sapiens, UniProt P22413)
# MEASUREMENT NOTES: ENPP1 enzyme assay with AMP-pNP substrate (hydrolysis of ATP analog)
# Format: biochemical
# EXPERIMENTAL CONDITIONS: AMP-pNP substrate (ATP analog); Ki from IC50 by Cheng-Prusoff; read-out: ENPP1 Inhibition _AMP-pNP: Ki
pKi: −log10 of the molar value.

• NS(=O)(=O)NCCC1CCN(c2ncnc3c2CCNC3)CC1 = < 6.00

Asked: State its pKi for this compound: COc1ccc2c(-c3ccc4c(c3)CN(S(N)(=O)=O)CC4)c(C)cnc2c1
Given back: < 6.00

Asked: Assign pKi to the following record: COc1cc2ncnc(N3CCC(CCNS(N)(=O)=O)CC3)c2cc1Cl
Given back: 6.00 to 7.00

Asked: Give recorded pKi. COc1cc2ncnc(NCc3ccc(S(N)(=O)=O)cc3)c2cc1OC
Given back: 6.00 to 7.00

Asked: Return reported pKi. Input compound: COc1ccc2ncc(C#N)c(N3CCC4(CC3)CCN(S(N)(=O)=O)C4)c2c1
Given back: 6.00 to 7.00
